Target: T1, Fc tagged mouse TNFR1 (Sino Biological) (mouse, UniProt P25118 22-212, limits assumed)
T1 construct: Bought reagent; also called mTNFR1; mTNFR1-Fc; not shown: Fc tag of the bought protein
T1 sequence (looked up): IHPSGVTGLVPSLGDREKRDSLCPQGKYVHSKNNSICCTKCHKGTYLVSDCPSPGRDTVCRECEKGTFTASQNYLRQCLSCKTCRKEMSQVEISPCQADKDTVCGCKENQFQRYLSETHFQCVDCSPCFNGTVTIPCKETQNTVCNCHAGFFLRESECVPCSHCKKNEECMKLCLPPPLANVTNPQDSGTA
Assay: SPR, Biacore T200 multi cycle kinetics, receptor-Fc captured on Protein A chip, TNF 1.25-40 nM, 1:1 model
pKd: −log10 of the molar value.
Overview of reported pKd across a group of binders:
assay.readout: pKd

{"columns": ["binder", "assay.readout", "measured"],
 "data": [
  ["TNF mutein C4 (ligand, Human TNF mutein, SHSVEG at positions 84-89; not shown: C-terminal FLAG tag and His6 tag from vector pANT65) VRSSSRTPSDKPVAHVVANPQAEGQLQWLNRRANALLANGVELRDNQLVVPSEGLYLIYSQVLFKGQGCPSTHVLLTHTISRISHSVEGKVNLLSAIKSPCQRETPEGAEAKPWYEPIYLGGVFQLEKGDRLSAEINRPDYLDFAESGQVYFGIIAL", "pKd", 9.68],
  ["TNF variant C9 (ligand, Human TNF variant from Library 2, AVTYQT at positions 84-89; not shown: C-terminal FLAG tag and His6 tag from vector pANT65) VRSSSRTPSDKPVAHVVANPQAEGQLQWINGRANALLANGVELRDNQLVVPSEGLYLIYSQVLFKGQGCPSTHVLLTHTISRIAVTYQTKVNLLSAIKSPCQRETPEGAEAKPWYEPIYLGGVFQLEKGDRLSAEINRPDYLDDADSGQVYFGIIAL", "pKd", 8.95]
]}
